Recorded TGI for the following compounds
- Tested on: CAKI-1 renal
- assay protocol: NCI tumour cell line growth inhibition, 48 h
measure: TGI

compound=Cc1cc(O)c2c3c(ccc2c1)C(=O)c1c(O)cccc1C3=O measure=TGI observed_value="> 100 µM"
compound="CC(C)N(C(=O)C12C3C4C1C1C2C3C41C(=O)N(C(C)C)C(C)C)C(C)C (stereo unspecified)" measure=TGI observed_value="> 50 µM"
compound=C[P+]1(c2ccccc2)CCCCC1 measure=TGI observed_value="> 100 µM"
compound=CNC(=O)CCCNC(=O)CCCC(=O)OC measure=TGI observed_value="> 100 µM"
compound=CCN(Cc1ccc(F)cc1)c1ccc(CO)c(C(F)(F)F)c1 measure=TGI observed_value="28.7 µM"
compound=O=c1[nH]c2nc[nH]c2c(=O)n1C1CCCCC1 measure=TGI observed_value="> 100 µM"
compound=CSC1=Nc2c(c(C)c(-c3ccccc3)n2COC(CO)CO)C2=NC(=O)CN12 measure=TGI observed_value="> 100 µM"
compound=O=C(/C=C(\Nc1ccccc1O)c1ccc(Br)cc1)C(Cl)(Cl)Cl measure=TGI observed_value="20.7 µM"
compound=N#C/C(=C\c1cc2ccc(N3CCC3)cc2oc1=O)C(=O)N(CC(=O)O)CC(=O)O measure=TGI observed_value="> 100 µM"
compound=c1cncc(CSc2ncnc3nc[nH]c23)c1 measure=TGI observed_value="> 100 µM"
compound=O=S(=O)(NCCCNc1cc(-c2cn(-c3ccccc3)nc2-c2cccc(O)c2)ccn1)c1ccc(F)cc1 measure=TGI observed_value="44.6 µM"

----------
Reported TGI values for a set of compounds
- Tested on: BT-549 breast
- assay protocol: NCI tumour cell line growth inhibition, 48 h
measure: TGI

compound=COc1cc(C(=O)O)c(-c2cc3c(cc2C=O)OCO3)c(OC)c1OC observed_value="> 10 µM"
compound=O=C(O)CC12CC3CC(CC(O)(C3)C1)C2 observed_value="> 100 µM"
compound="CCOP(=O)(OCC)C(Cc1ccc(Cl)cc1)NS(=O)(=O)c1ccc(C)cc1 (stereo not given)" observed_value="> 100 µM"
compound=CN(C)c1nc(N)c(C#N)c(C#N)c1C#N observed_value="> 10 µM"
compound=c1ccc(CN2COc3c(ccc4c5c(ccc34)CN(Cc3ccccc3)CO5)C2)cc1 observed_value="> 100 µM"
compound=c1cc(CN2CCNCCNCCNCC2)cc(CN2CCNCCNCCNCC2)c1 observed_value="> 100 µM"
compound=c1ccc2c(-c3csc(-c4c[nH]c5ccccc45)n3)c[nH]c2c1 observed_value="> 100 µM"
compound=Cc1ccc(S(=O)(=O)NC(=O)OC23COCN2COC3)cc1 observed_value="> 100 µM"
compound=Cc1nc(N(C(C)C)C(C)C)c(C(C)C)o1 observed_value="> 100 µM"
compound=CN1C(=NCCO)NS(=O)(=O)c2ccccc21 observed_value="> 100 µM"

----------
- System: RXF 393 renal
- assay protocol: NCI tumour cell line growth inhibition, 48 h
measure: GI50

compound=COC1=C(OC)[C@]2(OC)c3c(O)c(OC)c4c(c3O[C@@]23O[C@@H](c2ccccc2)CC=C3C1=O)[C@@H](OC)C[C@H](c1ccccc1)O4 measure=GI50 observed_value="1350 nM"
compound=CCN(Cc1ccc(F)cc1)c1ccc(CO)c(C(F)(F)F)c1 measure=GI50 observed_value="14900 nM"
compound=Clc1nc(Cl)c2ncn(CCOCCn3cnc4c(Cl)nc(Cl)nc43)c2n1 measure=GI50 observed_value="222 nM"
compound="CC1SC(c2ccc(Cl)cc2)N(CCc2cccs2)C1=O (centres undefined)" measure=GI50 observed_value="1560 nM"
